Data provenance is the supplement of paper PMC6757056.

B1: library; a variant is named by its letters at N, in order (parent)
chain: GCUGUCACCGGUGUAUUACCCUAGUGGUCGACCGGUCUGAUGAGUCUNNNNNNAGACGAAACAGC

# Variants of: B1
# Experimental details: normalized RNA/DNA level with ligand (relative to sTRSVctl = 100) (log10 (% of sTRSVctl)); ligand: hypoxanthine (xanthine aptamer); higher = less ribozyme self-cleavage, higher mRNA level
# Measurement context: ligand concentration (+) RNA-Seq: 5 mM, HEK293T, reporter: mCherry (pCS4076), ligand present: yes
Endpoint name: normalized RNA/DNA level with ligand (log10)
Provide a numeric answer; units are not to be included.

Previously resolved entries follow.
GCUGUCACCGGUGUAUUACCCUAGUGGUCGACCGGUCUGAUGAGUCUCGGCGAAGACGAAACAGC [CGGCGA]; 1.95
GCUGUCACCGGUGUAUUACCCUAGUGGUCGACCGGUCUGAUGAGUCUAAUUCGAGACGAAACAGC [AAUUCG]; 1.9
GCUGUCACCGGUGUAUUACCCUAGUGGUCGACCGGUCUGAUGAGUCUGGUCUCAGACGAAACAGC [GGUCUC]; 2.01
GCUGUCACCGGUGUAUUACCCUAGUGGUCGACCGGUCUGAUGAGUCUCUCGAUAGACGAAACAGC [CUCGAU]; 1.93
GCUGUCACCGGUGUAUUACCCUAGUGGUCGACCGGUCUGAUGAGUCUGUUGUUAGACGAAACAGC [GUUGUU]; 1.97

Please examine the following record next.
Suppose we examine the variant GCUGUCACCGGUGUAUUACCCUAGUGGUCGACCGGUCUGAUGAGUCUCUUGGGAGACGAAACAGC [CUUGGG] ; what normalized RNA/DNA level with ligand (log10) value has been reported?
1.87
